Listed here are molecules together with their documented pIC50.
# TESTED_TARGET: GCN2 (Mus musculus)
# Construct: endogenous in cells
# ASSAY_METHOD_TEXT: GCN2 inhibition cell-based assay (P-GCN2 Western blot in Neuro 2a cells)
# CONDITIONS: amino acid deprived media (DMEM lacking L-cysteine and methionine), 3 hours
pIC50: −log10 of the molar value.

- MOLECULE: "O=S(=O)(Nc1ccc(F)c(-c2ccc3nc(N[C@H]4CC[C@H](O)CC4)ncc3c2)c1F)c1cc(Cl)cc(CO)c1Cl [Compound 69]"
  RESULT: "> 8.00"
- MOLECULE: "Nc1ncc2cc(-c3c(F)ccc(NS(=O)(=O)c4ccc(Cl)c(C(F)(F)F)c4)c3F)ccc2n1 [Compound 149]"
  RESULT: "6.00 to 7.00"

Req: Param item = Nc1ncc2cc(-c3c(F)ccc(NS(=O)(=O)c4ccc(F)c(Cl)c4)c3F)ccc2n1 [Compound 158] ; retrieve measured pIC50.
Resp: 6.00 to 7.00

Req: Repeat with Nc1ncc2cc(-c3c(F)ccc(NS(=O)(=O)c4ccc(F)c(C(F)(F)F)c4)c3F)ccc2n1 [Compound 136]
Resp: 6.00 to 7.00

Req: Cool, now Nc1ncc2cc(-c3c(F)ccc(NS(=O)(=O)c4ccc(F)c(F)c4)c3F)ccc2n1 [Compound 132]
Resp: < 6.00

Req: How about this molecule: Nc1ncc2cc(-c3cccc(NS(=O)(=O)c4cc(Cl)ccc4Cl)c3F)ccc2n1 [Compound 13]
Resp: > 8.00

Req: Field entry: Nc1ncc2cc(-c3c(F)ccc(NS(=O)(=O)c4cccc(F)c4F)c3F)ccc2n1 [Compound 124]
Resp: < 6.00

Req: Same question for Nc1ncc2cc(-c3c(F)ccc(N[S+]([O-])c4ccc(Cl)cc4Cl)c3F)ccc2n1 (centres unmarked) [Compound 15] please.
Resp: 6.00 to 7.00

Req: What do you get for CCc1ccc(OC)c(S(=O)(=O)Nc2ccc(F)c(-c3ccc4nc(N)ncc4c3)c2F)c1 [Compound 120] ?
Resp: < 6.00

Req: What do you have for Nc1ncc2cc(-c3c(F)ccc(NS(=O)(=O)c4cccc(OC(F)(F)F)c4)c3F)ccc2n1 [Compound 139] ?
Resp: 6.00 to 7.00

Req: Also need Nc1ncc2cc(-c3cc(F)cc(NS(=O)(=O)c4cc(Cl)ccc4Cl)c3)ccc2n1 [Compound 14] , thanks.
Resp: < 6.00

----------
# TESTED_TARGET: GCN2 (Mus musculus)
# Construct: endogenous in cells
# ASSAY_METHOD_TEXT: GCN2 inhibition cell-based assay (P-GCN2 Western blot in Neuro 2a cells)
# CONDITIONS: amino acid deprived media (DMEM lacking L-cysteine and methionine), 3 hours
pIC50: −log10 of the molar value.
In this section, each of the compounds is paired with its reported pIC50.

Before answering, review these 10 worked examples.
- COMPOUND: "COc1ncc(Cl)cc1S(=O)(=O)Nc1ccc(F)c(-c2ccc3nc(N[C@H]4CC[C@H](O)CC4)ncc3c2)c1F [Compound 65]"
  TESTED_TARGET: "GCN2 (Mus musculus)"
  pIC50: "> 8.00"
- COMPOUND: "Nc1ncc2cc(-c3c(F)ccc(NS(=O)(=O)c4cc(Cl)ccc4C(F)(F)F)c3F)ccc2n1 [Compound 58]"
  TESTED_TARGET: "GCN2 (Mus musculus)"
  pIC50: "> 8.00"
- COMPOUND: "Nc1ncc2cc(-c3c(F)ccc(NS(=O)(=O)c4cc(Cl)ccc4Cl)c3F)ccc2n1 [Compound 2]"
  TESTED_TARGET: "GCN2 (Mus musculus)"
  pIC50: "> 8.00"
- COMPOUND: "Nc1ncc2cc(-c3c(F)ccc(NS(=O)(=O)c4ccc(Cl)c(F)c4)c3F)ccc2n1 [Compound 146]"
  TESTED_TARGET: "GCN2 (Mus musculus)"
  pIC50: "6.00 to 7.00"
- COMPOUND: "COc1ncc(Cl)cc1S(=O)(=O)Nc1ccc(F)c(-c2ccc3nc(N)ccc3c2)c1F [Compound 20]"
  TESTED_TARGET: "GCN2 (Mus musculus)"
  pIC50: "< 6.00"
- COMPOUND: "Nc1ncc2cc(-c3cccc4c3ccn4S(=O)(=O)c3cc(Cl)ccc3Cl)ccc2n1 [Compound 76]"
  TESTED_TARGET: "GCN2 (Mus musculus)"
  pIC50: "< 6.00"
- COMPOUND: "CNc1ncc2cc(-c3c(F)ccc(NS(=O)(=O)c4cc(Cl)cc(CO)c4Cl)c3F)ccc2n1 [Compound 162]"
  TESTED_TARGET: "GCN2 (Mus musculus)"
  pIC50: "7.00 to 8.00"
- COMPOUND: "COc1cc(S(=O)(=O)Nc2ccc(F)c(-c3ccc4nc(N)ncc4c3)c2F)ccc1F [Compound 143]"
  TESTED_TARGET: "GCN2 (Mus musculus)"
  pIC50: "6.00 to 7.00"
- COMPOUND: "Nc1ncc2cc(-c3c(F)ccc(NS(=O)(=O)c4cc(F)cc(C(F)(F)F)c4)c3F)ccc2n1 [Compound 123]"
  TESTED_TARGET: "GCN2 (Mus musculus)"
  pIC50: "< 6.00"
- COMPOUND: "O=S(=O)(Nc1ncc(F)c(-c2ccc3nc(NCCO)ncc3c2)c1F)c1cc(Cl)ccc1Cl [Compound 128]"
  TESTED_TARGET: "GCN2 (Mus musculus)"
  pIC50: "> 8.00"

Req: Please give the measured pIC50 for this compound: COc1ccc(S(=O)(=O)Nc2ccc(F)c(-c3ccc4nc(N)ncc4c3)c2F)cc1OC [Compound 115]
Resp: 7.00 to 8.00

Req: Please do the same for O=S(=O)(Nc1ccc(F)c(-c2ccc3nc(NC4CCOC4)ncc3c2)c1F)c1cc(Cl)ccc1Cl (stereo not shown) [Compound 168] as well.
Resp: > 8.00

Req: What do you get for COc1ncc(Cl)cc1S(=O)(=O)Nc1ccc(F)c(-c2ccc3nc(N)ncc3c2)c1 [Compound 19] ?
Resp: 6.00 to 7.00

Req: Moving on to the next compound: CNc1ncc2cc(-c3c(F)ccc(NS(=O)(=O)c4cc(Cl)cnc4OC)c3F)ccc2n1 [Compound 47]
Resp: > 8.00

Req: Same read-out for Nc1ncc2cc(-c3c(F)ccc(NS(=O)(=O)c4cc(F)cc(F)c4)c3F)ccc2n1 [Compound 112] ?
Resp: < 6.00

Req: What would you report for Nc1ncc2ccc(-c3c(F)ccc(NS(=O)(=O)c4cc(Cl)ccc4Cl)c3F)cc2n1 [Compound 5] ?
Resp: < 6.00

----------
# TESTED_TARGET: GCN2 (Mus musculus, UniProt Q9QZ05)
# Construct: endogenous in cells
# Sequence (Q9QZ05 whole entry): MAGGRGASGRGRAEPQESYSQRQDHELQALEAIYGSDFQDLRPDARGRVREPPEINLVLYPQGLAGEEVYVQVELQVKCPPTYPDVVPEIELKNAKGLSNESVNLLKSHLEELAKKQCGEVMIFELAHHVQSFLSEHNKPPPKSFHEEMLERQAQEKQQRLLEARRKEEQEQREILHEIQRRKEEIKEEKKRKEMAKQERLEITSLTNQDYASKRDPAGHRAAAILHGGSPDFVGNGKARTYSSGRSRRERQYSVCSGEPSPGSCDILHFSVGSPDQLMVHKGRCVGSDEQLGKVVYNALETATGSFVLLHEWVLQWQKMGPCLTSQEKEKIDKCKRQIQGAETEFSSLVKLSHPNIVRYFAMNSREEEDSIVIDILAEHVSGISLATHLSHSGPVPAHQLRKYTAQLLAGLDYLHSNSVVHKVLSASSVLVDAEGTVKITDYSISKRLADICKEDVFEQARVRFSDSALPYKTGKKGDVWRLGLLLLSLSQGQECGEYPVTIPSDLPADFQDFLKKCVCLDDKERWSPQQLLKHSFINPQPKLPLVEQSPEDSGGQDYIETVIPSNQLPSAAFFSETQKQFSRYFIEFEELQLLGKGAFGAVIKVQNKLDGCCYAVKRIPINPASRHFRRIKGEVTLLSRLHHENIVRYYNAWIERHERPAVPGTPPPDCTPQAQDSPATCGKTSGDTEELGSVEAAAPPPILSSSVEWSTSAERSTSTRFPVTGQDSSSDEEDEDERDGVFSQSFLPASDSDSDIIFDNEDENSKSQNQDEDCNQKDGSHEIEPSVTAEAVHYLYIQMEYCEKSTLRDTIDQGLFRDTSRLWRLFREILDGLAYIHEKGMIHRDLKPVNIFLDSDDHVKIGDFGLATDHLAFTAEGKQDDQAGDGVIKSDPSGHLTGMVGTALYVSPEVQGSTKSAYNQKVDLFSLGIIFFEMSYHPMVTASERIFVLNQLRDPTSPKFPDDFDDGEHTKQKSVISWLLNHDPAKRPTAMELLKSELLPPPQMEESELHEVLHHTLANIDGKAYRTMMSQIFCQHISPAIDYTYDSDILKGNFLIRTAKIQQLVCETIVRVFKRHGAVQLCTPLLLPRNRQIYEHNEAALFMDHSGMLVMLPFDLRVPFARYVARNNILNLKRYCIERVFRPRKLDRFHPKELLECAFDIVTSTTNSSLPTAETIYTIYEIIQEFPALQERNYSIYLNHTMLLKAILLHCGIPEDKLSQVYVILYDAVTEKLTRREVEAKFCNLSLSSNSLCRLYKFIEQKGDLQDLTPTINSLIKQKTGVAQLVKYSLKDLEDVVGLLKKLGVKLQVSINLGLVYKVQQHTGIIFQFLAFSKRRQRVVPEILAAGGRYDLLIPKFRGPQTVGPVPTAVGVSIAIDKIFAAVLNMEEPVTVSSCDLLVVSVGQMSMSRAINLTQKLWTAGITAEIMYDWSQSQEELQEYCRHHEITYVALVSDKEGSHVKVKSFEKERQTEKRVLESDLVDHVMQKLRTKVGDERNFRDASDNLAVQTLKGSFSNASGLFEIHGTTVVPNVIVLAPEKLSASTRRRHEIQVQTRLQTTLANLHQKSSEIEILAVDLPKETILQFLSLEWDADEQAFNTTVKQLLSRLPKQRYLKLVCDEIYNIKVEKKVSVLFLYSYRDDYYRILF
# ASSAY_METHOD_TEXT: GCN2 inhibition cell-based assay (P-GCN2 Western blot in Neuro 2a cells)
# CONDITIONS: amino acid deprived media (DMEM lacking L-cysteine and methionine), 3 hours
MEASURED_ENDPOINT: IC50

Solved entries:
- COMPOUND: "O=S(=O)(Nc1ccc(F)c(-c2ccc3nc(N[C@@H](CO)c4ccccc4)ncc3c2)c1F)c1cc(Cl)ccc1C(F)(F)F [Compound 167]"
  TESTED_TARGET: "GCN2 (Mus musculus, UniProt Q9QZ05)"
  IC50: "100 to 1000 nM"
- COMPOUND: "Nc1ncc2cc(-c3c(F)ccc(NS(=O)(=O)c4cc(F)ccc4F)c3F)ccc2n1 [Compound 8]"
  TESTED_TARGET: "GCN2 (Mus musculus, UniProt Q9QZ05)"
  IC50: "> 1000 nM"
- COMPOUND: "Nc1ncc2cc(-c3c(F)ccc(NS(=O)(=O)C4CCCCC4)c3F)ccc2n1 [Compound 81]"
  TESTED_TARGET: "GCN2 (Mus musculus, UniProt Q9QZ05)"
  IC50: "> 1000 nM"
- COMPOUND: "O=S(=O)(Nc1ccc(F)c(-c2ccc3nc(NCCO)ncc3c2)c1F)c1cc(Cl)cc(CO)c1Cl [Compound 134]"
  TESTED_TARGET: "GCN2 (Mus musculus, UniProt Q9QZ05)"
  IC50: "< 10 nM"
- COMPOUND: "Cc1ccc(NS(=O)(=O)c2cc(Cl)ccc2Cl)cc1-c1ccc2nc(N)ncc2c1 [Compound 16]"
  TESTED_TARGET: "GCN2 (Mus musculus, UniProt Q9QZ05)"
  IC50: "100 to 1000 nM"
- COMPOUND: "COc1ccc(S(=O)(=O)Nc2ccc(F)c(-c3ccc4nc(N)ncc4c3)c2F)cc1Cl [Compound 148]"
  TESTED_TARGET: "GCN2 (Mus musculus, UniProt Q9QZ05)"
  IC50: "100 to 1000 nM"
- COMPOUND: "Cc1ccc(S(=O)(=O)Nc2ccc(F)c(-c3ccc4nc(N)ncc4c3)c2F)cc1Cl [Compound 147]"
  TESTED_TARGET: "GCN2 (Mus musculus, UniProt Q9QZ05)"
  IC50: "100 to 1000 nM"
- COMPOUND: "COc1ccc(Cl)cc1S(=O)(=O)Nc1ccc(F)c(-c2ccc3nc(N)ncc3c2)c1F [Compound 10]"
  TESTED_TARGET: "GCN2 (Mus musculus, UniProt Q9QZ05)"
  IC50: "< 10 nM"
- COMPOUND: "Nc1ncc2cc(-c3c(F)ccc(NS(=O)(=O)c4cc(Cl)c(Cl)cc4Cl)c3F)ccc2n1 [Compound 150]"
  TESTED_TARGET: "GCN2 (Mus musculus, UniProt Q9QZ05)"
  IC50: "10 to 100 nM"
- COMPOUND: "O=S(=O)(Nc1ccc(F)c(-c2ccc3nc(N[C@H]4CC[C@@H](O)CC4)ncc3c2)c1F)c1cc(Cl)ccc1C(F)(F)F [Compound 165]"
  TESTED_TARGET: "GCN2 (Mus musculus, UniProt Q9QZ05)"
  IC50: "10 to 100 nM"

Req: Given the compound COc1ncc(Cl)cc1S(=O)(=O)Nc1ccc(F)c(-c2ccc3nc(NC(=O)C(C)(C)C)ncc3c2)c1F [Compound 105] , what is its reported IC50?
Resp: 10 to 100 nM

Req: Again, but for Cc1c(NS(=O)(=O)c2cc(Cl)ccc2Cl)cccc1-c1ccc2nc(N)ncc2c1 [Compound 11]
Resp: 10 to 100 nM

Req: Record: Cc1ccc(F)cc1S(=O)(=O)Nc1ccc(F)c(-c2ccc3nc(N)ncc3c2)c1F [Compound 133]
Resp: 10 to 100 nM

Req: Follow-up entry: CC(=O)Nc1ncc2cc(-c3c(F)ccc(NS(=O)(=O)c4cc(Cl)ccc4Cl)c3F)ccc2n1 [Compound 106]
Resp: < 10 nM

Req: Ok, now COc1ncc(Cl)cc1S(=O)(=O)Nc1ccc(F)c(-c2ccc3nc(NCCO)ncc3c2)c1F [Compound 46]
Resp: < 10 nM

Req: Moving on to Nc1ncc2cc(-c3c(F)ccc(NS(=O)(=O)c4cccc(F)c4)c3F)ccc2n1 [Compound 116]
Resp: > 1000 nM
